Provide the reported TGI of each item.
Test system: SK-MEL-2 melanoma
Experiment: NCI tumour cell line growth inhibition, 48 h

Could you tell me TGI for each of these compounds? They are listed below.
1. CCOP(=O)(OCC)/C(C#N)=C/c1cnc(-c2ccccc2)[nH]1
2. CCOC(=O)c1csc(NC(=O)CCN(CC)CC)n1

### Response
["> 100 µM", "> 100 µM"]

### Prompt Look up TGI for this compound: NC(N)=NS(=O)(=O)c1ccc(NCc2c3ccccc3[n+]([O-])c3ccccc23)cc1
### Response > 100 µM

###

Tested on: RXF 393 renal
Assay: NCI tumour cell line growth inhibition, 48 h; in the data active = GI50 below about 0.43 µM; inactive = the rest
I would appreciate it if you answered using one of these outcomes: Y for active, N for inactive

{"columns": ["molecule", "category"],
 "data": [
  ["CSc1ccc(C2=NN(C(C)=O)C(c3cc(C)cs3)C2)cc1 (stereo not drawn)", "N"]
]}

### Prompt Short answer needed: outcome of this test for CC1OC(O[C@H]2C[C@@H](O)[C@]3(CO)[C@H]4[C@H](O)C[C@]5(C)[C@@H](C6=CC(=O)OC6)CC[C@]5(O)[C@@H]4CC[C@]3(O)C2)C(O)C(O)C1O (stereo partly drawn) ?
### Response N

### Prompt Short answer needed: outcome of this test for CC[CH2][Pb]([CH2]CC)([CH2]CC)[O]C(=O)C(F)(F)F ?
### Response Y

### Prompt Short answer needed: outcome of this test for O=C(CN1CCOCC1)Nc1ccc(Cn2nnc3c2C(=O)c2nnn(Cc4ccc(NC(=O)CN5CCOCC5)cc4)c2C3=O)cc1 ?
### Response N

### Prompt Short answer needed: outcome of this test for O=C1c2cccc(NCCN=Cc3cc(O)ccc3O)c2C(=O)c2c(NCCN=Cc3cc(O)ccc3O)cccc21 ?
### Response N

### Prompt Short answer needed: outcome of this test for C[C@]12CC[C@H](O)CC1=CC[C@@H]1[C@@H]2CC[C@]2(C)C(c3cccnc3)=CC[C@@H]12 ?
### Response N

### Prompt Short answer needed: outcome of this test for COc1ccc2[nH]c(O)c(/C=c3/cc4c(c(-c5cc(OC)c(OC)c(OC)c5)n3)=Nc3ccccc3-4)c2c1 ?
### Response N

### Prompt Short answer needed: outcome of this test for N#C/C(=C1C=C/C(=N/O)C(Br)=C/1)c1ccccc1 ?
### Response N
